Recorded inhibition of growth at 10 µM by entry
tested on: SK-MEL-2; assay: Cytotoxicity against human SK-MEL-2 cells assessed as growth inhibition at 10 uM after 48 hrs by sulphorhodamine B assay; format: functional; conditions: SK-MEL-2, 48 h, read-out: GI
READOUT_LABEL: inhibition of growth at 10 µM (%)

| MOLECULE | VALUE_COMPARATOR | NUMERIC_RESULT |
| --- | --- | --- |
| CC1CCCc2c1nc(NC(=S)NC(=O)c1ccccc1)c(C#N)c2-c1ccc(Cl)cc1 (stereo not given) | = | 10.3 |
| COc1ccc(-c2c3c(nc4nc(C)[nH]c(=O)c24)C(C)CCC3)cc1 (stereo not given) | < | 10 |
| CC1CCCc2c1nc(N)c(C#N)c2-c1ccc(Cl)cc1 (stereo not given) | = | 15 |
| CC1CCCc2c1nc1nc(SCC(=O)c3ccccc3)nc(N)c1c2-c1ccc(Cl)cc1 (stereo not given) | = | 14.5 |
| COc1ccc(-c2c3c(nc4ncn(N)c(=N)c24)C(C)CCC3)cc1 (stereo not given) | = | 11 |
| COc1ccc(-c2c3c(nc4ncnc(N)c24)C(C)CCC3)cc1 (stereo not given) | < | 10 |
| CC1CCCc2c1nc1ncnc(N)c1c2-c1ccc(Cl)cc1 (stereo not given) | < | 10 |
| CC1CCCc2c1nc1[nH]c(=O)nc(N)c1c2-c1ccc(Cl)cc1 (stereo not given) | < | 10 |
| CCSc1nc(N)c2c(-c3ccc(OC)cc3)c3c(nc2n1)C(C)CCC3 (stereo not given) | < | 10 |
| COc1ccc(-c2c3c(nc4ncn5ncnc5c24)C(C)CCC3)cc1 (stereo not given) | < | 10 |
